experiment: ATG_Sox_CIS: Attagene CIS-FACTORIAL HepG2 Assay for human SRY-box transcription factor (SOX) (AID 2282960); conditions: HepG2 Attagene cis-factorial SOX reporter, mRNA; actives raise or lower the signal
The source made the active and inactive calls. Rule for the calls: active = hit-call score of the fitted dose curve at least 0.9, where 1 is the maximum; inactive = score below 0.9.
Possible outcomes: active, inactive

* CCCCOCC | inactive
* O=C(Nc1ccc2c(O)c(N=Nc3ccc(N=Nc4ccc(S(=O)(=O)O)cc4)cc3)c(S(=O)(=O)O)cc2c1)c1ccccc1 | inactive
* BrCc1cccc(Oc2ccccc2)c1 | inactive
* CC1(C)O[C@@H]2[C@@H](CO[C@@]3(COS(N)(=O)=O)OC(C)(C)O[C@@H]23)O1 | inactive
* C=CCCCCCCCCCC | inactive
* CCCCC(CC)C(=O)OC(C)C (centres undefined) | inactive
* CC(CN=Cc1ccccc1O)N=Cc1ccccc1O (centres undefined) | inactive
* CC(C)CCCCCCc1ccc(OCCOCCO)cc1 | inactive
* C[Si]1(C)O[Si](C)(C)O[Si](C)(C)O1 | inactive
* C=C(C)[C@H]1CC=C(C)C(=O)C1 | inactive
* Cc1ccc2c(c1)C(=O)OC2=O | inactive
* CCC(C)S (centres undefined) | inactive
* Cc1ccc(N)c(S(=O)(=O)O)c1 | inactive
* CC(Oc1cc(Cl)ccc1Cl)C(=O)O (centres undefined) | inactive
* CCOC(=O)c1ccc(N)cc1 | inactive
* CCCSc1ccc2nc(NC(=O)OC)[nH]c2c1 | inactive
* COc1cc([C@@H]2c3cc4c(cc3[C@@H](O[C@@H]3O[C@@H]5CO[C@@H](C)O[C@H]5[C@H](O)[C@H]3O)[C@H]3COC(=O)[C@H]23)OCO4)cc(OC)c1O | inactive
* C=Cc1ccc(C(C)(C)C)cc1 | inactive
* CN(C)C(=O)Nc1ccc(Oc2ccc(Cl)cc2)cc1 | inactive
* C=CC(=O)OCCCC | inactive
* CCOc1ccc(NC(=O)CC(C)O)cc1 (centres undefined) | inactive
* CC(C)Nc1nc(N)nc(Cl)n1 | inactive
* CCc1cc(C(C)(C)C)c(O)c(C(C)(C)C)c1 | inactive
* CCCCCCCCN1CCCC1=O | inactive
* CCN(CCN)c1cccc(C)c1 | inactive
* CSc1c(Cl)c(Cl)c(Cl)c(Cl)c1Cl | inactive
* c1ccc(Oc2ccccc2)cc1 | inactive
* C=Cc1ccncc1 | active
* FC(F)(F)COCC(F)(F)F | inactive

====

read-out: Interleukin-1 alpha (IL1a), IL1A (gene 3552); assay: BSK_BE3C_IL1a: BioMAP Diversity Plus: BE3C Assay for Interleukin-1 alpha (IL1a) Biomarker Activity (AID 2283016); conditions: primary human bronchial epithelial cells; actives raise or lower the signal
Calls of active or inactive are those of the source. The calls were made as follows: active = hit-call score of the fitted dose curve at least 0.9, where 1 is the maximum; inactive = score below 0.9.
Possible outcomes: active, inactive

* Cc1cc(CCC(=O)OCCOCCOCCOC(=O)CCc2cc(C)c(O)c(C(C)(C)C)c2)cc(C(C)(C)C)c1O | inactive
* COc1ccc(CCN2CCC(Nc3nc4ccccc4n3Cc3ccc(F)cc3)CC2)cc1 | inactive
* CCC(C)c1cc([N+](=O)[O-])cc([N+](=O)[O-])c1OC(=O)OC(C)C (stereo unspecified) | active
* CC=Cc1ccc(OCC)c(O)c1 | inactive
* CN(C)C(=O)Nc1ccc(Oc2ccc(Cl)cc2)cc1 | active
* COc1ccc(OC)c(N=Nc2c(O)ccc3ccccc23)c1 | active
* C=CC(C)(O)CCC=C(C)C (stereo unspecified) | inactive
* O=C1OC2(c3ccccc31)c1ccc(O)c(Br)c1Oc1c2ccc(O)c1Br | active
* CCCCCCCCCCCCCCCC(=O)OC/C=C(C)/C=C/C=C(C)/C=C/C1=C(C)CCCC1(C)C | inactive
* CS(=O)(=O)OCCCCOS(C)(=O)=O | inactive
* CC(C=O)Cc1ccc(C(C)(C)C)cc1 (stereo unspecified) | inactive
* O=C(Nc1ccc2c(O)c(N=Nc3ccc(N=Nc4ccc(S(=O)(=O)O)cc4)cc3)c(S(=O)(=O)O)cc2c1)c1ccccc1 | inactive
* CN(c1nccc(=O)[nH]1)C1CCN(c2nc3ccccc3n2Cc2ccc(F)cc2)CC1 | inactive
* c1ccc2cc(Nc3ccc(Nc4ccc5ccccc5c4)cc3)ccc2c1 | active
* CCN(CC)C(=O)N(CC)CC | inactive
* CC(C)(N=C=O)c1cccc(C(C)(C)N=C=O)c1 | inactive
* O=CN1CCOCC1 | inactive
* c1ccc(Oc2ccccc2)cc1 | inactive
* C=C(C)C(=O)OCCOCCOCCOC(=O)C(=C)C | inactive
* CC1(C)C2=CCCC(C)(C)[C@]23CC[C@H]1C3 | inactive
* IC(I)I | inactive
* Oc1c(Cl)cc(Cl)c(Cl)c1Cc1c(O)c(Cl)cc(Cl)c1Cl | active
* CCCCCC(C=O)=Cc1ccccc1 | inactive
* CN(C)C(=S)SC(=S)N(C)C | active
* CCCCCCC(CO)CCCC (stereo unspecified) | inactive
* O=C1OC[C@H](Cc2cccc(O)c2)[C@H]1Cc1cccc(O)c1 | inactive

====

biological target: Ratio of Nucleoli Translocation and Cytoplasm, AR (gene 367) (UniProt P10275); assay: UPITT_HCI_U2OS_AR_TIF2_Nucleoli_Cytoplasm_Ratio_Agonist: University of Pittsburgh U2OS Androgen Receptor-Transcriptional Intermediary Factor 2 (AR-TIF2) Agonism High Content Imaging Assay for Ratio of Nucleoli Translocation and Cytoplasm (AID 2284000);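 note: hits raise the red nucleolar to cytoplasm ratio above vehicle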
Sequence (P10275 whole entry, looked up): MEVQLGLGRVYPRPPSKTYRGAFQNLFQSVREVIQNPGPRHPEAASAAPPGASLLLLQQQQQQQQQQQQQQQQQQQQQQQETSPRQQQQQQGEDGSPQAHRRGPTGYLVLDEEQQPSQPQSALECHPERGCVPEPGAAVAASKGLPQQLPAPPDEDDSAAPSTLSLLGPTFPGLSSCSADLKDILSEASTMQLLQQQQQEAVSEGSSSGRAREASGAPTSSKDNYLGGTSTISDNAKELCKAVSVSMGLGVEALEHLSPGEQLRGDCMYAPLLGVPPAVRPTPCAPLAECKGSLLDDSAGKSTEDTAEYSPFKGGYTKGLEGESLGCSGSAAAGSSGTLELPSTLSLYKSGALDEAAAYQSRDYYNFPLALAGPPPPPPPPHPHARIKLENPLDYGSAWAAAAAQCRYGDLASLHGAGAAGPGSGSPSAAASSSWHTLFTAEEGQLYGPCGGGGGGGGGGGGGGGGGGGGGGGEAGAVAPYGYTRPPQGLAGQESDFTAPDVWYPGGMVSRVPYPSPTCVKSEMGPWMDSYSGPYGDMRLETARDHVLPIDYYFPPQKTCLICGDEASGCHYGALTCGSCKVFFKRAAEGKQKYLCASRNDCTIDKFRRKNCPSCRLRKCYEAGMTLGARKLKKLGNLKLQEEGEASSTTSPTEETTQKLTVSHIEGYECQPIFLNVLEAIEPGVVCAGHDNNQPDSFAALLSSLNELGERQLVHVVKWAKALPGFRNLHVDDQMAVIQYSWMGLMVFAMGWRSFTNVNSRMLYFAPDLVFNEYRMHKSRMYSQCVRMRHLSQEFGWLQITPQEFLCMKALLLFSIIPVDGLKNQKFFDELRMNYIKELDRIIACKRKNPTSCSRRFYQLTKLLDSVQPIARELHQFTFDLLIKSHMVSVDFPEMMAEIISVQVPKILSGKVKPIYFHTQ
Results filed as inconclusive are left out. Activity calls are given as the source filed them. How the source made its calls: active means hit-call score of the fitted dose curve at least 0.9, where 1 is the maximum; inconclusive means response in the unintended direction; inactive means score below 0.9.
Possible outcomes: active, inactive

* CCCCCCCCC=CCCCCCCCC1=NCCN1CCO | active
* CCCCCCCCSCCO | inactive
* Cc1ccc(S(=O)(=O)Oc2ccc(N=Nc3ccc(-c4ccc(N=Nc5c(O)ccc6cc(S(=O)(=O)O)cc(S(=O)(=O)O)c56)c(C)c4)cc3C)cc2)cc1 | inactive
* CC(C=O)Cc1ccc(C(C)(C)C)cc1 (centres undefined) | inactive
* OCc1cccc(Oc2ccccc2)c1 | inactive
* Nc1ccc(N)c2c1C(=O)c1ccccc1C2=O | inactive
* CCCCCCCCCCCCCC(=O)OCC(O)CO (centres undefined) | inactive
* CCCCC1CCC(O)CC1 (centres undefined) | inactive
* CCOC(=O)[C@@H](C)Oc1ccc(Oc2nc3ccc(Cl)cc3o2)cc1 | inactive

====

experiment: CEETOX_H295R_ANDR: CeeTox H295R High-throughput Steroidogenesis Assay for Androstenedione (ANDR) (AID 2283436); settings: actives raise or lower the signal;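 note: human H295R adrenal cells exposed for 48 h with androstenedione measured in medium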
The source made the active and inactive calls. How the source made its calls: active means hit-call score of the fitted dose curve at least 0.9, where 1 is the maximum; inactive means score below 0.9.
Possible outcomes: Y for active, N for inactive

- BrCc1cccc(Oc2ccccc2)c1: Y
- CCOC(=O)[C@@H](C)Oc1ccc(Oc2nc3ccc(Cl)cc3o2)cc1: N
- Nc1ccc(N)c2c1C(=O)c1ccccc1C2=O: N
- CCC(C)c1cc([N+](=O)[O-])cc([N+](=O)[O-])c1OC(=O)OC(C)C (centres undefined): N

====

read-out: Macrophage colony-stimulating factor (MCSF), CSF1 (gene 1435); assay: BSK_CASM3C_MCSF: BioMAP Diversity Plus: CASM3C Assay for Macrophage colony-stimulating factor (MCSF) Biomarker Activity (AID 2283044); conditions: primary human coronary artery smooth muscle cells; actives raise or lower the signal;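 note: M-CSF protein amount quantified by ELISA after 24 h exposure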
Active and inactive are the calls of the source. The calls were made as follows: active = hit-call score of the fitted dose curve at least 0.9, where 1 is the maximum; inactive = score below 0.9.
Possible outcomes: active, inactive

* CC(CN=Cc1ccccc1O)N=Cc1ccccc1O (stereo not given) | inactive
* CC(C)(N=C=O)c1cccc(C(C)(C)N=C=O)c1 | inactive
* CCCCOC(=O)CCCCCCCC(=O)OCCCC | inactive
* c1ccc(CCc2ccccc2)cc1 | active
* CSCCC=O | inactive
* CC(=O)c1c(C)c([N+](=O)[O-])c(C(C)(C)C)c([N+](=O)[O-])c1C | inactive
* CC(C=O)Cc1ccc(C(C)(C)C)cc1 (stereo not given) | active
* CN(C)C(=O)Nc1ccc(Oc2ccc(Cl)cc2)cc1 | inactive
* C=C(C)C(=O)OCCOCCOCCOCCOC(=O)C(=C)C | inactive
* CC(=O)Nc1ccc(C(=O)CCl)cc1 | active
* O=C1c2ccccc2C(=O)c2c(O)ccc(O)c21 | inactive
* c1ccc2cc(Nc3ccc(Nc4ccc5ccccc5c4)cc3)ccc2c1 | inactive
* C=C(C)C(=O)OCCOCCOCCOC(=O)C(=C)C | active
* CCCCCC(C=O)=Cc1ccccc1 | active
* C[C@@H]1CCN(C(=O)[C@H](CCCN=C(N)N)NS(=O)(=O)c2cccc3c2NC[C@H](C)C3)[C@@H](C(=O)O)C1 | inactive
* c1ccc(Oc2ccccc2)cc1 | inactive
* O=C1OC2(c3ccccc31)c1ccc(O)c(Br)c1Oc1c2ccc(O)c1Br | inactive
* Oc1c(Cl)cc(Cl)c(Cl)c1Cc1c(O)c(Cl)cc(Cl)c1Cl | active
* CCOC(=O)C(C#N)=C(c1ccccc1)c1ccccc1 | inactive
* CC1(C)C2=CCCC(C)(C)[C@]23CC[C@H]1C3 | active
* CC(C)(C)CC(C)(C)c1ccc(OCCOCC[N+](C)(C)Cc2ccccc2)cc1 | active
* C1=CC2C3C=CC(C3)C2C1 (stereo not given) | inactive
* C=CC(C)(O)CCC=C(C)C (stereo not given) | inactive
* O=C(Nc1ccc2c(O)c(N=Nc3ccc(N=Nc4ccc(S(=O)(=O)O)cc4)cc3)c(S(=O)(=O)O)cc2c1)c1ccccc1 | inactive
* CC(=O)C1(C)CC2=C(CCCC2(C)C)CC1C (stereo not given) | active
